The reported measurements were obtained from paper PMC11555678.

For each of the compounds below, state its MIC of antifungal in combination with KKOO.
- System: C. auris B11245
- Assay type: cell-based, Candida auris
- test conditions: +0 μg/mL KKOO (control); RPMI1640, 37 °C, 48 h; CAS: paradoxical growth, MIC = <20% growth

Ask: Looking for the measured MIC of antifungal in combination with KKOO of `C[C@@H]1[C@H](O)[C@@H](C)/C=C/C=C/C=C/C=C/C=C/C=C/C=C/[C@H](O[C@@H]2O[C@H](C)[C@@H](O)[C@H](N)[C@@H]2O)C[C@@H]2O[C@](O)(C[C@@H](O)C[C@@H](O)[C@H](O)CC[C@@H](O)C[C@@H](O)CC(=O)O[C@H]1C)C[C@H](O)[C@H]2C(=O)O` , can you help?
Reply: 1 µg/mL

Ask: Looking for the measured MIC of antifungal in combination with KKOO of `OC(Cn1cncn1)(Cn1cncn1)c1ccc(F)cc1F` , can you help?
Reply: > 128 µg/mL

Ask: Looking for the measured MIC of antifungal in combination with KKOO of CCC(C)n1ncn(-c2ccc(N3CCN(c4ccc(OCC5COC(Cn6cncn6)(c6ccc(Cl)cc6Cl)O5)cc4)CC3)cc2)c1=O (stereo not shown) , can you help?
Reply: 0.5 µg/mL

Ask: Looking for the measured MIC of antifungal in combination with KKOO of `CC[C@H](C)C[C@H](C)CCCCCCCCC(=O)N[C@H]1C[C@@H](O)[C@@H](NCCN)NC(=O)[C@@H]2[C@@H](O)CCN2C(=O)[C@H]([C@H](O)CCN)NC(=O)[C@H]([C@H](O)[C@@H](O)c2ccc(O)cc2)NC(=O)[C@@H]2C[C@@H](O)CN2C(=O)[C@H]([C@@H](C)O)NC1=O` , can you help?
Reply: 1 µg/mL

====

For each of the compounds below, state its MIC.
- Tested on: C. glabrata 2001
- protocol: microbe, parasite or virus in culture
- Format: cell-based, Candida glabrata
- test conditions: Nakaseomyces glabratus, 2001; compound alone; RPMI1640, 37 °C, 48 h; read-out: MIC
Just the number please, in µg/mL, no unit attached.

Ask: Looking for the measured MIC of CC[C@H](C)C[C@H](C)CCCCCCCCC(=O)N[C@H]1C[C@@H](O)[C@@H](NCCN)NC(=O)[C@@H]2[C@@H](O)CCN2C(=O)[C@H]([C@H](O)CCN)NC(=O)[C@H]([C@H](O)[C@@H](O)c2ccc(O)cc2)NC(=O)[C@@H]2C[C@@H](O)CN2C(=O)[C@H]([C@@H](C)O)NC1=O [CAS, caspofungin] , can you help?
Reply: 0.5

Ask: Looking for the measured MIC of OC(Cn1cncn1)(Cn1cncn1)c1ccc(F)cc1F [FLC, fluconazole] , can you help?
Reply: 8

Ask: Looking for the measured MIC of C[C@@H]1[C@H](O)[C@@H](C)/C=C/C=C/C=C/C=C/C=C/C=C/C=C/[C@H](O[C@@H]2O[C@H](C)[C@@H](O)[C@H](N)[C@@H]2O)C[C@@H]2O[C@](O)(C[C@@H](O)C[C@@H](O)[C@H](O)CC[C@@H](O)C[C@@H](O)CC(=O)O[C@H]1C)C[C@H](O)[C@H]2C(=O)O [AMB, amphotericin B] , can you help?
Reply: 1

Ask: Looking for the measured MIC of CCC(C)n1ncn(-c2ccc(N3CCN(c4ccc(OCC5COC(Cn6cncn6)(c6ccc(Cl)cc6Cl)O5)cc4)CC3)cc2)c1=O (stereo not shown) [ITR, itraconazole] , can you help?
Reply: 0.5

====

- Test system: C. neoformans apt3Δ
- protocol: microbe, parasite or virus in culture
- Assay type: cell-based, Cryptococcus neoformans
- test conditions: Cryptococcus neoformans, 48 h
reported metric: MIC (µg/mL)
Just the number please, in µg/mL, no unit attached.

Ask: Looking for the measured MIC of CC[C@H](C)C[C@H](C)CCCCCCCCC(=O)N[C@H]1C[C@@H](O)[C@@H](NCCN)NC(=O)[C@@H]2[C@@H](O)CCN2C(=O)[C@H]([C@H](O)CCN)NC(=O)[C@H]([C@H](O)[C@@H](O)c2ccc(O)cc2)NC(=O)[C@@H]2C[C@@H](O)CN2C(=O)[C@H]([C@@H](C)O)NC1=O [CAS, caspofungin] , can you help?
Reply: 16

Ask: Looking for the measured MIC of OC(Cn1cncn1)(Cn1cncn1)c1ccc(F)cc1F [FLC, fluconazole] , can you help?
Reply: 2

Ask: Looking for the measured MIC of CCC(C)n1ncn(-c2ccc(N3CCN(c4ccc(OCC5COC(Cn6cncn6)(c6ccc(Cl)cc6Cl)O5)cc4)CC3)cc2)c1=O (stereo not shown) [ITR, itraconazole] , can you help?
Reply: 0.062

Ask: Looking for the measured MIC of C[C@@H]1[C@H](O)[C@@H](C)/C=C/C=C/C=C/C=C/C=C/C=C/C=C/[C@H](O[C@@H]2O[C@H](C)[C@@H](O)[C@H](N)[C@@H]2O)C[C@@H]2O[C@](O)(C[C@@H](O)C[C@@H](O)[C@H](O)CC[C@@H](O)C[C@@H](O)CC(=O)O[C@H]1C)C[C@H](O)[C@H]2C(=O)O [AMB, amphotericin B] , can you help?
Reply: 0.5

====

- System: C. neoformans crm1Δ
- protocol: microbe, parasite or virus in culture
- Type: cell-based, Cryptococcus neoformans
- test conditions: Cryptococcus neoformans, 48 h
For each of the compounds below, state its MIC.
Just the number please, in µg/mL, no unit attached.

Ask: Looking for the measured MIC of CCC(C)n1ncn(-c2ccc(N3CCN(c4ccc(OCC5COC(Cn6cncn6)(c6ccc(Cl)cc6Cl)O5)cc4)CC3)cc2)c1=O (stereo not shown) , can you help?
Reply: 0.062

Ask: Looking for the measured MIC of `CC[C@H](C)C[C@H](C)CCCCCCCCC(=O)N[C@H]1C[C@@H](O)[C@@H](NCCN)NC(=O)[C@@H]2[C@@H](O)CCN2C(=O)[C@H]([C@H](O)CCN)NC(=O)[C@H]([C@H](O)[C@@H](O)c2ccc(O)cc2)NC(=O)[C@@H]2C[C@@H](O)CN2C(=O)[C@H]([C@@H](C)O)NC1=O` , can you help?
Reply: 16

Ask: Looking for the measured MIC of `C[C@@H]1[C@H](O)[C@@H](C)/C=C/C=C/C=C/C=C/C=C/C=C/C=C/[C@H](O[C@@H]2O[C@H](C)[C@@H](O)[C@H](N)[C@@H]2O)C[C@@H]2O[C@](O)(C[C@@H](O)C[C@@H](O)[C@H](O)CC[C@@H](O)C[C@@H](O)CC(=O)O[C@H]1C)C[C@H](O)[C@H]2C(=O)O` , can you help?
Reply: 0.5

Ask: Looking for the measured MIC of `OC(Cn1cncn1)(Cn1cncn1)c1ccc(F)cc1F` , can you help?
Reply: 2

====

- System: C. glabrata 2001
- Format: cell-based, Candida glabrata
- test conditions: +4 μg/mL KKOO; RPMI1640, 37 °C, 48 h
For each of the compounds below, state its MIC of antifungal in combination with KKOO.
Just the number please, in µg/mL, no unit attached.

Ask: Notebook entry, C. glabrata 2001 assay: MIC of antifungal in combination with KKOO of CCC(C)n1ncn(-c2ccc(N3CCN(c4ccc(OCC5COC(Cn6cncn6)(c6ccc(Cl)cc6Cl)O5)cc4)CC3)cc2)c1=O (stereo not shown) [ITR, itraconazole] = ?
Reply: 0.062

Ask: Notebook entry, C. glabrata 2001 assay: MIC of antifungal in combination with KKOO of C[C@@H]1[C@H](O)[C@@H](C)/C=C/C=C/C=C/C=C/C=C/C=C/C=C/[C@H](O[C@@H]2O[C@H](C)[C@@H](O)[C@H](N)[C@@H]2O)C[C@@H]2O[C@](O)(C[C@@H](O)C[C@@H](O)[C@H](O)CC[C@@H](O)C[C@@H](O)CC(=O)O[C@H]1C)C[C@H](O)[C@H]2C(=O)O [AMB, amphotericin B] = ?
Reply: 0.25

Ask: Notebook entry, C. glabrata 2001 assay: MIC of antifungal in combination with KKOO of OC(Cn1cncn1)(Cn1cncn1)c1ccc(F)cc1F [FLC, fluconazole] = ?
Reply: 4

Ask: Notebook entry, C. glabrata 2001 assay: MIC of antifungal in combination with KKOO of CC[C@H](C)C[C@H](C)CCCCCCCCC(=O)N[C@H]1C[C@@H](O)[C@@H](NCCN)NC(=O)[C@@H]2[C@@H](O)CCN2C(=O)[C@H]([C@H](O)CCN)NC(=O)[C@H]([C@H](O)[C@@H](O)c2ccc(O)cc2)NC(=O)[C@@H]2C[C@@H](O)CN2C(=O)[C@H]([C@@H](C)O)NC1=O [CAS, caspofungin] = ?
Reply: 0.016

====

- Test system: C. neoformans cdc50Δ
- protocol: microbe, parasite or virus in culture
- Format: cell-based, Cryptococcus neoformans
- test conditions: Table S1; unit and conditions not given (MICs elsewhere in μg/mL)
- Protocol: All microdilution assays with fungi were carried out in accordance with CLSI protocols from M27 for yeasts and M38 for filamentous fungi, respectively, unless otherwise specified.[64],[65] Briefly, 96-well plates were charged with RPMI1640 media, with operating volume in the first column, 200 μL, and half operating volume, 100 μL, in the remaining wells. Drug stock solution in DMSO was aliquoted into the first well in each row. […]
reported metric: MIC (SAR screen peptides)
Lab note: jot the number down without any unit.

Ask: Looking for the measured MIC (SAR screen peptides) of WGGIOO{D-Asn}YA [N7n, D-Asn7 epimer of KKOO] , can you help?
Reply: 8

Ask: Looking for the measured MIC (SAR screen peptides) of W{Hyp}GIOONYA [G2HYP, hydroxyproline at position 2, C′ NH2] , can you help?
Reply: 4

Ask: Looking for the measured MIC (SAR screen peptides) of {D-Trp}GGIOONYA [W1w, D-Trp1 epimer of KKOO] , can you help?
Reply: 4

Ask: Looking for the measured MIC (SAR screen peptides) of WGGIOONY{D-Ala} [A9a, D-Ala9 epimer of KKOO] , can you help?
Reply: 4

Ask: Looking for the measured MIC (SAR screen peptides) of WGGIOONYA [KKOO-NHMe, C′ methylamide version of KKOO] , can you help?
Reply: 4

Ask: Looking for the measured MIC (SAR screen peptides) of WGGIKONYA [K6O, single ornithine-substituted AW9-Ma derivative] , can you help?
Reply: 4

Ask: Looking for the measured MIC (SAR screen peptides) of WGGIOKNYA [K5O, single ornithine-substituted AW9-Ma derivative] , can you help?
Reply: 8

Ask: Looking for the measured MIC (SAR screen peptides) of Myristic acid {Dap(FITC)}WGGIOONYA [(FITC)KKOO, FITC labeled version of KKOO] , can you help?
Reply: 128
